target: APOL1 (Homo sapiens, UniProt O14791); assay: MultiTox-Fluor Multiplex Cytotoxicity Assay in tet-inducible APOL1 T-REx-HEK293 cells (cell rescue, ratio of dead to live cells); conditions: tet-inducible transgenic APOL1 T-REx-HEK293 cell lines, 50 ng/mL tet, 24 hours; read-out: IP50 (i.e., IC50 for cell proliferation)
Reported IC50 is given for each of the following compounds.
readout_label: IC50

[[record]]
compound = "C[C@H]1C[C@@]2(CCN1C1COCC1O)OCCc1cc(CC(F)F)sc12 (stereo partly shown) [Compound 597]"
system_tested = "APOL1 (Homo sapiens, UniProt O14791)"
readout_label = "IC50"
result = "< 100 nM"

[[record]]
compound = "C[C@@H]1C[C@]2(CCN1Cc1cnn(C)c1)OCCc1cc(Cl)sc12 (stereo in doubt)"
system_tested = "APOL1 (Homo sapiens, UniProt O14791)"
readout_label = "IC50"
result = "< 100 nM"

[[record]]
compound = "CCc1cc2c(s1)CCO[C@@]21CCN(Cc2cn(CCCO)nn2)[C@@H](C)C1"
system_tested = "APOL1 (Homo sapiens, UniProt O14791)"
readout_label = "IC50"
result = "< 100 nM"

[[record]]
compound = "C[C@H]1C[C@@]2(CCN1C[C@@H](O)CO)OCCc1cc(CC(F)F)sc12"
system_tested = "APOL1 (Homo sapiens, UniProt O14791)"
readout_label = "IC50"
result = "100 to 500 nM"

[[record]]
compound = "CCc1cc2c(s1)CCO[C@@]21CCN(Cc2cn(CCn3ccnc3)nn2)[C@@H](C)C1"
system_tested = "APOL1 (Homo sapiens, UniProt O14791)"
readout_label = "IC50"
result = "100 to 500 nM"

[[record]]
compound = "CCc1cc2c(s1)CCOC21CCN(Cc2cnn(CCS(=O)(=O)NC)c2)CC1"
system_tested = "APOL1 (Homo sapiens, UniProt O14791)"
readout_label = "IC50"
result = "< 100 nM"

[[record]]
compound = "CCc1cc2c(s1)CCO[C@@]21CCN(Cc2cn(C3CS(=O)(=O)C3)nn2)[C@@H](C)C1"
system_tested = "APOL1 (Homo sapiens, UniProt O14791)"
readout_label = "IC50"
result = "< 100 nM"


---

target: APOL1 (Homo sapiens); assay: MultiTox-Fluor Multiplex Cytotoxicity Assay in tet-inducible APOL1 T-REx-HEK293 cells (cell rescue, ratio of dead to live cells); conditions: tet-inducible transgenic APOL1 T-REx-HEK293 cell lines, 50 ng/mL tet, 24 hours; read-out: IP50 (i.e., IC50 for cell proliferation)
readout_label: IC50

[[record]]
molecule = "C[C@H]1C[C@@]2(CCN1C1CCCC1O)OCCc1cc(CC(F)F)sc12 (stereo partly drawn) [Compound 595]"
readout_label = "IC50"
result = "< 100 nM"

[[record]]
molecule = "CCc1cc2c(s1)CCO[C@@]21CCN(Cc2cn(CC(O)(CO)CO)nn2)[C@@H](C)C1 [Compound 89]"
readout_label = "IC50"
result = "< 100 nM"

[[record]]
molecule = "CNS(=O)(=O)CCn1cc(CN2CC[C@]3(C[C@@H]2C)OCCc2c3sc(C(F)(F)F)c2CO)cn1 [Compound 916]"
readout_label = "IC50"
result = "< 100 nM"

[[record]]
molecule = "CCc1cc2c(s1)CCO[C@@]21CCN(Cc2cn(CCS(=O)(=O)NCCO)nn2)[C@@H](C)C1 [Compound 6]"
readout_label = "IC50"
result = "< 100 nM"

[[record]]
molecule = "C[C@H]1C[C@@]2(CCN1Cc1cn[nH]c1)OCC(O)c1cc(Cl)sc12 (stereo partly drawn) [Compound 817]"
readout_label = "IC50"
result = "< 100 nM"

[[record]]
molecule = "CCc1cc2c(s1)CCO[C@@]21CCN(Cc2cn(C3CC(=O)N(CCOC)C3)nn2)[C@@H](C)C1 (stereo partly drawn) [Compound 180]"
readout_label = "IC50"
result = "< 100 nM"

[[record]]
molecule = "C[C@H]1C[C@@]2(CCN1C[C@H]1C[C@@H](NS(=O)(=O)CC#N)C1)OCCc1cc(CC(F)F)sc12 [Compound 549]"
readout_label = "IC50"
result = "< 100 nM"

[[record]]
molecule = "C[C@H]1C[C@@]2(CCN1Cc1ccc(O)nc1)OC[C@H](O)c1cc(Cl)sc12 [Compound 791]"
readout_label = "IC50"
result = "< 100 nM"

[[record]]
molecule = "CCc1cc2c(s1)CCO[C@@]21CCN(Cc2cn(CC3(OCCO)CCC3)nn2)[C@@H](C)C1 [Compound 104]"
readout_label = "IC50"
result = "100 to 500 nM"

[[record]]
molecule = "CNC(=O)[C@H](O)Cn1cc(CN2CC[C@]3(C[C@@H]2C)OCCc2c3sc(C(F)(F)F)c2CO)cn1 [Compound 986]"
readout_label = "IC50"
result = "< 100 nM"

[[record]]
molecule = "CC(C)C1Cc2sc(Cl)cc2C2(CCN(Cc3cnn(C)c3)[C@@H](C)C2)O1 (stereo partly drawn) [Compound 532]"
readout_label = "IC50"
result = "100 to 500 nM"

[[record]]
molecule = "CCc1cc2c(s1)CCO[C@@]21CCN(C[C@H]2C[C@@H](NC(=O)OCC(C)C)C2)[C@@H](C)C1 [Compound 373]"
readout_label = "IC50"
result = "100 to 500 nM"


---

Items are presented alongside their recorded pIC50.
biological target: APOL1 (Homo sapiens, UniProt O14791); experiment: MultiTox-Fluor Multiplex Cytotoxicity Assay in tet-inducible APOL1 T-REx-HEK293 cells (cell rescue, ratio of dead to live cells); details: tet-inducible transgenic APOL1 T-REx-HEK293 cell lines, 50 ng/mL tet, 24 hours; read-out: IP50 (i.e., IC50 for cell proliferation)
pIC50: −log10 of the molar value.
readout_label: pIC50

[[record]]
structure_as_smiles = "CCc1cc2c(s1)CCOC21CCN(Cc2cnn(CCS(=O)(=O)N(C)C)c2)CC1"
result = "6.30 to 7.00"

[[record]]
structure_as_smiles = "C[C@H]1C[C@@]2(CCN1Cc1cnccn1)OCCc1c2sc(Cl)c1CO"
result = "6.00 to 6.30"

[[record]]
structure_as_smiles = "CCc1cc2c(s1)CCO[C@@]21CCN(CC2CN(C(=O)c3ccccc3)C2)[C@@H](C)C1"
result = "> 7.00"


---

Target: APOL1 (Homo sapiens, UniProt O14791)
Sequence (O14791 1-398 S342G/I384M): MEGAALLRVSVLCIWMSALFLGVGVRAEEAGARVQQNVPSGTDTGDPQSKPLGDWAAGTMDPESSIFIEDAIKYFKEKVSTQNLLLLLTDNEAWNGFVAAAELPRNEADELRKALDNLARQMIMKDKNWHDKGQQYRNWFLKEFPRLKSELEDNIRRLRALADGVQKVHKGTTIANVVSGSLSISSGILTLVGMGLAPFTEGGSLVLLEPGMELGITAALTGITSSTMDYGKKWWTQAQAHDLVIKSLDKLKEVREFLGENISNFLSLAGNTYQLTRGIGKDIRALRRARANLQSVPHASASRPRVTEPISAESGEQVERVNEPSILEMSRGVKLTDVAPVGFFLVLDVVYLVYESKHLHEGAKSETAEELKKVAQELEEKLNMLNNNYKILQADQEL
Experiment: MultiTox-Fluor Multiplex Cytotoxicity Assay in tet-inducible APOL1 T-REx-HEK293 cells (cell rescue, ratio of dead to live cells)
Conditions: tet-inducible transgenic APOL1 T-REx-HEK293 cell lines, 50 ng/mL tet, 24 hours; read-out: IP50 (i.e., IC50 for cell proliferation)
pIC50: −log10 of the molar value.
Reported pIC50 values for the following compounds.
readout_label: pIC50

[[record]]
compound = "CCN(CC)C(=O)Cn1cc(CN2CC[C@]3(C[C@@H]2C)OCCc2c3sc(C(F)(F)F)c2CO)cn1 [Compound 904]"
readout_label = "pIC50"
result = "> 7.00"

[[record]]
compound = "C[C@H]1C[C@@]2(CCN1CC1CCN(S(C)(=O)=O)CC1)OCCc1c2sc(Cl)c1CO [Compound 748]"
readout_label = "pIC50"
result = "6.30 to 7.00"

[[record]]
compound = "CCc1cc2c(s1)CCOC21CCN(Cc2ccc(S(C)(=O)=O)cc2F)CC1 [Compound 1154]"
readout_label = "pIC50"
result = "6.00 to 6.30"

[[record]]
compound = "C[C@H]1C[C@@]2(CCN1Cc1cnn(CC(O)CC3(O)COC3)c1)OC[C@@H](O)c1cc(C(F)(F)F)sc12 (stereo partly drawn) [Compound 975]"
readout_label = "pIC50"
result = "> 7.00"

[[record]]
compound = "CC(O)Cn1cc(CN2CC[C@]3(C[C@@H]2C)OCCc2c3sc(C(F)(F)F)c2CO)cn1 (stereo partly drawn) [Compound 931]"
readout_label = "pIC50"
result = "> 7.00"

[[record]]
compound = "CCc1cc2c(s1)CCO[C@@]21CCN(C[C@H]2C[C@@H](NC(=O)C3(C)COC3)C2)[C@@H](C)C1 [Compound 359]"
readout_label = "pIC50"
result = "6.30 to 7.00"

